Target: T1, 6His-AviTag-linked cynomolgus monkey IL-33 (residues 112 to 269) (cynomolgus monkey, UniProt O95760 112-269 (human entry), biotin on the AviTag portion (BirA) in the SPR of Example 7; used without biotinylation in Example 10)
T1 construct: GenBank EHH57404 printed; also called cynomolgus monkey IL-33 protein; mature cynomolgus monkey IL-33
T1 chain: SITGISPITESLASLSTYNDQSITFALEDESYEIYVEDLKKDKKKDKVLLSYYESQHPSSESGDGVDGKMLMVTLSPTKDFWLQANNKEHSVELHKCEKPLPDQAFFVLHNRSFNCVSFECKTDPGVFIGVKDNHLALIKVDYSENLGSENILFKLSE
Test: SPR, IL-33 on chip, Fab supernatant as analyte
measured.endpoint: Cynomolgus Monkey IL-33 Binding Amount (RU)
Give the number; RU is assumed, so skip it.

For the binder A00-0036 (Fab) (Fab, V domains shown, parental clone as Fab; also called V30; parental clone (Fab)) VH: EVQLLESGGGLVQPGGSLRLSCAASGFTFSNYYMHWVRQAPGKGLEWVSSISSSSSYIYYADSVKGRFTISRDNSKNTLYLQMNSLRAEDTAVYYCARLGTRHDAFDIWGQGTLVTVSS VL: QSVLTQPPSASGTPGQRVTISCSGSSSNIGNNAVNWYQQLPGTAPKLLIYASNMRRLGVPDRFSGSKSGTSASLAISGLRSEDEADYYCAAWDDSQKAVVFGGGTKLTVL , give its reported Cynomolgus Monkey IL-33 Binding Amount (RU).
59

Now for another entry.
For the binder A12-1E04 (Fab) (Fab, V domains shown, Fab secreted by E. coli, tested as culture supernatant; also called V2) VH: EVQLLESGGGLVQPGGSLRLSCAASGFTFSDYYMNWVRQAPGKGLEWVSSISRYSGYVYYADSVKGRFTISRDNSKNTLYLQMNSLRAEDTAVYYCARDIGGMDVWGQGTLVTVSS VL: QSVLTQPPSASGTPGQRVTISCTGSSSNIGAVYDVHWYQQLPGTAPKLLIYRNNQRPSGVPDRFSGSKSGTSASLAISGLRSEDEADYYCQSYDSSRWVFGGGTKLTVL , give its reported Cynomolgus Monkey IL-33 Binding Amount (RU).
512

meta.source: patent US20240002495A1
